# TARGET_OF_ASSAY: Kv1.5 (Rattus norvegicus, UniProt P19024)
# Construct: gene Kcna5; Rat Kv1.5 in pEYFP-N1 vector, expressed in HEK293 cells
# Sequence (P19024 whole entry): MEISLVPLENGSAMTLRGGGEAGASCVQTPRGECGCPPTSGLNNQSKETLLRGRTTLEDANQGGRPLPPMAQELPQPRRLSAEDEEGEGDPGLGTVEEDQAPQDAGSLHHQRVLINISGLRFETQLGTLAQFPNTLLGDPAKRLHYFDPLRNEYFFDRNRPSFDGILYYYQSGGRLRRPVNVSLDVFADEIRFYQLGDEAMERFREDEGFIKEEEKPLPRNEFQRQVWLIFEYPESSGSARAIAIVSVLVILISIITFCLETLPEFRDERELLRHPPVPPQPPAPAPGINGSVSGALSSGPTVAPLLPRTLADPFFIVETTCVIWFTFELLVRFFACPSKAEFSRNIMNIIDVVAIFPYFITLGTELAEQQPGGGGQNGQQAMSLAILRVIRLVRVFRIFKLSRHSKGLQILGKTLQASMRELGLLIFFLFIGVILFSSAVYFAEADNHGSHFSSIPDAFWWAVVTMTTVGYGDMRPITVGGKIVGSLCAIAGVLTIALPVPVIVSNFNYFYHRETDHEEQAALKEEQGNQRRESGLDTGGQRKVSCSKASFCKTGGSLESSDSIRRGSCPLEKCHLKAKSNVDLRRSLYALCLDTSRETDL
# EXPERIMENTAL_DETAILS: whole-cell patch clamp of Kv1.[…] expressed in HEK293 cells
# Type: cell-based
RESULT_TYPE: IC50 (µM)
One number for each entry, in µM.

Exercise: Recorded IC50 for COc1cc2c(cc1OC)C(=O)C(CC1CCN(Cc3ccccc3)CC1)C2 (stereo not shown) with Kv1.5 (Rattus norvegicus, UniProt P19024), please?
Solution: 72.5
